Values compiled from ChEMBL document CHEMBL3397014.

Below: a set of entries, each annotated with reported log10 of CTD50.
test system: MT4; experiment: Cytotoxic activity against human MT4 cells assessed as reduction in cell viability after 72 hrs by MTT assay; type: functional
Reported Endpoint: log10 of CTD50 (log10 of the value in µM)

- Molecule: "CC(C)C1=CC2Oc3cc(O)ccc3[C@@H]3OC[C@H](C1)[C@]23C (some centres not stated)"
  log10 of CTD50: 2.18
- Molecule: "COc1cc2c(cc1O)C1C=C(C(C)C)C[C@H]3CO[C@@H]2[C@@]13C (some centres not stated)"
  log10 of CTD50: 2.18
- Molecule: "COc1cc2c(c(OC)c1OC)C1C=C(C(C)C)C[C@H]3CO[C@@H]2[C@@]13C (some centres not stated)"
  log10 of CTD50: 2.30
- Molecule: "COc1cc2c(c(OC)c1O)C1C=C(C(C)C)C[C@H]3CO[C@@H]2[C@@]13C (some centres not stated)"
  log10 of CTD50: 2.35
- Molecule: "COc1cc2c(cc1O)[C@@H]1OC[C@@H]3CC(C(C)C)=CC2[C@@]31C (some centres not stated)"
  log10 of CTD50: -0.03
- Molecule: "COc1cccc2c1C(=O)c1c(O)c3c(c(O)c1C2=O)C[C@@](O)(C(=O)CO)C[C@@H]3O[C@H]1C[C@H](N)[C@H](O)[C@H](C)O1 [DOXORUBICIN]"
  log10 of CTD50: 0.44

---

assay: Cytotoxic activity against human U937 cells assessed as reduction in cell viability after 72 hrs by MTT assay; assay type: functional, U-937
Respond with Criterion met for CTD50 values of 100 µM and above, Criterion not met for values below.

- Molecule: "COc1cc2c(c(OC)c1O)C1C=C(C(C)C)C[C@H]3CO[C@@H]2[C@@]13C (some centres not stated)"
  Qualitative Label: "Criterion met"
- Molecule: "COc1cc2c(cc1O)C1C=C(C(C)C)C[C@H]3CO[C@@H]2[C@@]13C (some centres not stated)"
  Qualitative Label: "Criterion met"
- Molecule: "CC(C)C1=CC2Oc3cc(O)ccc3[C@@H]3OC[C@H](C1)[C@]23C (some centres not stated)"
  Qualitative Label: "Criterion met"
- Molecule: "COc1cc2c(c(OC)c1OC)C1C=C(C(C)C)C[C@H]3CO[C@@H]2[C@@]13C (some centres not stated)"
  Qualitative Label: "Criterion not met"
- Molecule: "COc1cc2c(cc1O)[C@@H]1OC[C@@H]3CC(C(C)C)=CC2[C@@]31C (some centres not stated)"
  Qualitative Label: "Criterion not met"
- Molecule: "COc1cccc2c1C(=O)c1c(O)c3c(c(O)c1C2=O)C[C@@](O)(C(=O)CO)C[C@@H]3O[C@H]1C[C@H](N)[C@H](O)[C@H](C)O1"
  Qualitative Label: "Criterion not met"
- Molecule: "COc1cc(OC)c2c(c1OC)C1C=C(C(C)C)C[C@H]3CO[C@@H]2[C@@]13C (some centres not stated)"
  Qualitative Label: "Criterion met"
